The values you see were collected from PubChem BioAssay AID624483.

Consider the following compounds; for each one, report its fluorescence intensity.
- experiment: compound fluorescence in toxin protease inhibitor counterscreen, primary screen, artefact control for toxin protease inhibitor project, biochemical, multiplex microsphere, HTS (AID 624483)
- conditions-used: compound autofluorescence counterscreen, microsphere flow cytometry; active compounds read high
In all, about 360,000 compounds went through this assay and about 11,000 (3.1%) were called active. Inconclusive results (about 2%) are left out. Shown is part of a subset that was picked to be rich in actives.
Give bare numbers.

Example entries begin here.
Cc1ccc(C)c(NC(=S)NNC(=S)Nc2ccc(C(C)C)cc2)c1
3300
COc1ccccc1NC(=O)C1=C(C)Nc2ncnn2C1c1ccc(C)o1 (stereo unspecified)
2690
COC(=O)Cc1ccc(OC2(C)CCN(Cc3ccc4c(c3)OCCO4)C2)cc1 (stereo unspecified)
2970
O=C(CSCc1ccccc1)Nc1ccccc1
3440
Cc1nc2nc(SCC(=O)Nc3cccc(F)c3)[nH]c2cc1Br
5340

Batch request: fluorescence intensity per item, same order as input.
1. O=C(COc1ccc(-c2ccccc2)cc1)NN=C1CCCC1
2. CC1(C)OC(=O)C2=C(C[C@@H](C3CCCCC3)O[C@@H]2c2ccc(Cl)cc2)O1
3. COc1cc(C2C(C(=O)Nc3ccccc3OC)=C(C)Nc3ncnn32)ccc1O (stereo unspecified)
4. C/C(=N\NC(=S)Nc1ccc(C)cc1)c1cc2ccccc2o1
5. O=C(Nc1ccc(Cl)c(C(F)(F)F)c1)C1Cc2c(-c3ccccc3Oc3ccccc3)ccnc2O1 (stereo unspecified)
6. Cc1cc(=O)oc2c3c(cc(OCC(=O)NCC(O)c4ccccc4)c12)OC(C)(C)CC3 (stereo unspecified)

[4340, 6270, 6420, 4230, 3930, 5100]

Batch request: fluorescence intensity per item, same order as input.
1. Cc1cc(C)cc(NC(=O)CSCc2cnn(-c3ccccc3)c2-n2cccc2)c1
2. CCCCc1nnc(NC(=O)CSc2nc(N)cc(=O)[nH]2)s1
3. COc1ccc(NC(=O)CSc2nc(NS(=O)(=O)c3ccc(C)cc3)cc(=O)[nH]2)cc1

1. 3720
2. 4560
3. 19100

Batch request: fluorescence intensity per item, same order as input.
1. Cc1ccc(NS(=O)(=O)c2cc3c(cc2Br)NC(=O)CO3)cc1C
2. Cc1ccc(NC(=O)CSc2nc(CSc3ccc(C)cc3)cc(=O)[nH]2)cc1
3. CC1(Cc2ccccc2C#N)C(=O)Nc2ccc(-c3ccc4[nH]ccc4c3)cc21 (stereo unspecified)
4. COC(=O)c1cccc(NC(=O)CSc2nc(C)cc(=O)[nH]2)c1
5. COc1ccc(C2=NS(=O)(=O)N(C)C(C(=O)N3CCCCC3)=C2)cc1

1. 2960
2. 4220
3. 3220
4. 19300
5. 5200

Batch request: fluorescence intensity per item, same order as input.
1. Cc1ccc(OCCCC(=O)Nc2ccc(S(=O)(=O)Nc3cc(C)nc(C)n3)cc2)cc1
2. COc1ccccc1NC(=O)C1=C(C)Nc2nnnn2C1c1cccc(Br)c1 (stereo unspecified)

1. 5510
2. 20400
